Where do the numbers come from? From ChEMBL document CHEMBL4513216.

# System: Plasmodium berghei
# Assay procedure: Screen against P. berghei liver stage (PbLuc), transformed with Luciferase, at 10uM
# Assay type: functional, HepG2
# Condition details: tested at 10 uM
The campaign covered roughly 69,000 compounds. About 8,600 (12%) showed an effect of 50% or more. This is one part of a sample in which strong results are shown more often than they occur.
Classes based on INHIBITION: class 0 = under 10%, class 1 = from 10% up to 50%, class 2 = 50% and over

Take a look at these entries with their results.
>  <Compound>
Cc1noc(C)c1CN1CCN(c2ccnc(-c3ccccc3)n2)CC1

>  <Answer label>
class 2

$$$$
>  <Compound>
CC(C)n1c(=O)c2sccc2n(CC(=O)Nc2ccccc2)c1=O

>  <Answer label>
class 2

$$$$
>  <Compound>
N#Cc1ccc(CNCCn2cccn2)c(F)c1

>  <Answer label>
class 1

$$$$

# bin label for "Cc1ccc(CN2CCc3ncnc(-c4ccc(F)cc4)c3CC2)o1"
class 1

# bin label for "Cc1ccc(CN2CCc3ncnc(-c4ccncc4)c3CC2)o1"
class 0

# bin label for "Cc1cc(CN2CCN(c3ccnc(-c4ccccc4)n3)CC2)no1"
class 0

# bin label for CCN1CCC2(CN(C(=O)N(C)C)CC23CCNCC3)C1=O (centres undefined)
class 0

# bin label for "N#Cc1cc(C#N)c(SCC(=O)Nc2ccc(F)cc2)nc1N"
class 1

----------
INHIBITION reference
# Tested on: Plasmodium berghei
# Assay procedure: Screen against P. berghei liver stage (PbLuc), transformed with Luciferase, at 10uM
# Type: functional, HepG2
# Condition details: tested at 10 uM
Screen size: about 69,000 compounds; about 8,600 (12%) showed an effect of 50% or more. The sample holds strong results, similar compounds and a random draw of the others, so the mix is not that of the screen.
Quick reminder: number only, in %, skip the unit.

Example cases with answers are listed next.
>  <Molecule>
O=C(Cc1ccsc1)N1CCN(CC2CC2)c2ncccc2C1

>  <Readout kind>
INHIBITION

>  <Obs value>
29.4

$$$$
>  <Molecule>
Cn1cnnc1C1CCCN1C(=O)Nc1cccc(OC(F)F)c1 (stereo not drawn)

>  <Readout kind>
INHIBITION

>  <Obs value>
30.7

$$$$

Field: next molecule
Look up INHIBITION: O=C(Cc1ccsc1)N1CCCC(c2n[nH]c3nccnc23)C1 (stereo not drawn)
59.1

----------
# System: Plasmodium berghei
# Assay procedure: Screen against P. berghei liver stage (PbLuc), transformed with Luciferase, at 10uM
# Assay type: functional, HepG2
# Condition details: tested at 10 uM
In all, about 69,000 compounds went through this assay and about 8,600 (12%) showed an effect of 50% or more. For the sample, strong results were picked, then their nearest neighbours and some compounds at random.
Readout kind: INHIBITION
Write the figure, then the unit, nothing else.

Example cases with answers are listed next.
>  <Compound>
Cc1ccc(CN2CC[C@H]3CO[C@H](CN(C)C)[C@H]3C2)o1

>  <Study target>
Plasmodium berghei

>  <INHIBITION>
53.9%

$$$$
>  <Compound>
COc1ccc(CNC(C)c2ccc(Cl)cc2)c(OC)c1OC (centres undefined)

>  <Study target>
Plasmodium berghei

>  <INHIBITION>
56%

$$$$
>  <Compound>
O=C(C1CC(c2cccc(F)c2)=NO1)N1CCc2ccccc21 (centres undefined)

>  <Study target>
Plasmodium berghei

>  <INHIBITION>
-12.2%

$$$$
>  <Compound>
CN(C)C[C@@H]1OC[C@H]2CN(Cc3ccoc3)CC[C@H]21

>  <Study target>
Plasmodium berghei

>  <INHIBITION>
-87.7%

$$$$
>  <Compound>
CC(C)CSCCN1CCCN(S(C)(=O)=O)CC1

>  <Study target>
Plasmodium berghei

>  <INHIBITION>
75.6%

$$$$

Look up INHIBITION: "NS(=O)(=O)CCNC(=O)c1ccc(-c2ccc(F)cc2)cc1F"
-33.2%

Look up INHIBITION: COc1ccc(C(C)NCCC(N)=O)cc1F (centres undefined)
49.4%

Look up INHIBITION: "CCS(=O)(=O)CCNC(=O)c1ccc(-c2ccc(C)cc2)cc1F"
8.47%

Look up INHIBITION: CC(NCC1CCN(CCO)CC1)c1cccc(Cl)c1 (centres undefined)
40.4%

Look up INHIBITION: "Cc1ccc(CN2CC[C@H]3CO[C@H](CN4CCCC4)[C@H]3C2)o1"
7.7%

----------
# System: Plasmodium berghei
# Assay procedure: Screen against P. berghei liver stage (PbLuc), transformed with Luciferase, at 10uM
# Format: functional, HepG2
# Condition details: tested at 10 uM
The whole screen tested about 69,000 compounds, of which about 8,600 (12%) showed an effect of 50% or more. The sample as a whole holds a higher share of strong results than the screen did.
Readout kind: INHIBITION (%)
Quick reminder: number only, in %, skip the unit.

Example cases with answers are listed next.
>  <Compound>
CC(c1cccc(-c2ncccc2C#N)c1)N(C)C (stereo unspecified)

>  <INHIBITION / %>
19.3

$$$$
>  <Compound>
Cc1cnc(N2CC[C@@H]3O[C@H](COCc4ccccn4)CC[C@@H]32)nc1

>  <INHIBITION / %>
5.44

$$$$
>  <Compound>
CCN(CC)C(=O)Cn1c(-c2ccc(Cl)cc2)nc(C)c(CCO)c1=O

>  <INHIBITION / %>
-21.8

$$$$
>  <Compound>
COc1cccc(Oc2nc(C)c(C(=O)O)s2)c1OC

>  <INHIBITION / %>
45.5

$$$$
>  <Compound>
Cc1ccc(N2CCCN(C(=O)CC3CCCO3)CC2)nn1 (stereo unspecified)

>  <INHIBITION / %>
35.3

$$$$

Look up INHIBITION: "Cc1nc(-c2ccc(Cl)cc2)n(CC(=O)NC(C)C)c(=O)c1CCO"
61.4

Look up INHIBITION: NC(=O)C1CCN(C(=O)c2cccn2Cc2cccs2)C1 (stereo unspecified)
11.6

Look up INHIBITION: CC(C)N1CCOC(CC(=O)N2CCCN(Cc3cccs3)CC2)C1 (stereo unspecified)
28.5

----------
INHIBITION reference
# Test system: Plasmodium berghei
# Assay procedure: Screen against P. berghei liver stage (PbLuc), transformed with Luciferase, at 10uM
# Format: functional, HepG2
# Condition details: tested at 10 uM
Out of some 69,000 compounds screened, about 8,600 (12%) showed an effect of 50% or more. Only a selection was taken, and strong results are over-represented in it overall.
Quick reminder: number only, in %, skip the unit.

Look up INHIBITION: "Oc1nc(C2CCN(Cc3ccccn3)CC2)cc2ccccc12"
-13.2

Look up INHIBITION: "CN(CCN1CCOC1=O)CC(=O)Nc1ccc(Cl)c(Cl)c1"
37.8

----------
# Tested on: Plasmodium berghei
# Assay procedure: Screen against P. berghei liver stage (PbLuc), transformed with Luciferase, at 10uM
# Format: functional, HepG2
# Condition details: tested at 10 uM
About 8,600 (12%) of roughly 69,000 compounds showed an effect of 50% or more. What follows is part of a selection rich in strong results, with near analogues and random picks from the rest.
INHIBITION reference
Quick reminder: number only, in %, skip the unit.

>  <Compound>
CN1CC(c2cc(O)nc(NCc3ccccc3Cl)n2)CC1=O (stereo unspecified)

>  <INHIBITION (%)>
30.4

$$$$
>  <Compound>
NC(=O)CN1CC(c2nc(C3CC3)no2)C1

>  <INHIBITION (%)>
19.8

$$$$
>  <Compound>
CCC(CO)NC(=O)c1ccc2ccc(N(C)CC3CC3)n2c1 (stereo unspecified)

>  <INHIBITION (%)>
-24.3

$$$$
>  <Compound>
NC(=O)c1ccc(NC(=O)Cn2cc(-c3ccccc3)ncc2=O)cc1

>  <INHIBITION (%)>
26.8

$$$$
>  <Compound>
CN(C)c1nc2cn(C3CCSCC3)c(=O)c-2c[nH]1

>  <INHIBITION (%)>
18.65

$$$$

Form: Entry = NC(=O)C1CCN(C(=O)NC(Cc2ccccc2)C(F)(F)F)CC1 (stereo unspecified) | System = Plasmodium berghei | INHIBITION = ____
-82.2

----------
# Test system: Plasmodium berghei
# Assay procedure: Screen against P. berghei liver stage (PbLuc), transformed with Luciferase, at 10uM
# Assay type: functional, HepG2
# Condition details: tested at 10 uM
About 8,600 (12%) of roughly 69,000 compounds showed an effect of 50% or more. The full list was thinned out, with strong results kept by preference.
Classes based on INHIBITION: low group: < 10%; middle group: ≥ 10% and < 40%; high group: ≥ 40%

# bin label for CC(C)N(Cc1ccccc1)C(=O)c1cc(C2CCCN2C)ccn1 (configuration not stated)
low group

# bin label for COc1ccc(C(=O)N2CCCCC2c2nccs2)c(OC)c1 (configuration not stated)
low group

# bin label for "Cc1ccccc1CN(CCN(C)C)Cc1ccc(C(=O)O)cc1"
low group
